meta.source: patent US11524938B2

ASSAY_TARGET: human P2X4 (Homo sapiens)
MEASUREMENT_PROTOCOL: Human P2X4 HEK Cell FLIPR Assay
Format: cell-based
CONDITION_SUMMARY: HEK293, HEK293 cells, agonist Bz-ATP at EC80; percentage of maximal inhibition; read-out: Human P2X4 HEK Cells (FLIPR Assay) avg Efficacy [%]
QUANTITY_NAME: Emax (%)

INSERT INTO measurements (compound, meas_value) VALUES
  ('NS(=O)(=O)c1cc(NC(=O)Cc2ccc(F)cc2)ccc1-c1cnn(C(F)F)c1', 95),
  ('NS(=O)(=O)c1cc(NC(=O)Cc2ccccc2OC(F)(F)F)ccc1-n1cc(C(F)(F)F)cn1', 89),
  ('N#Cc1cnn(-c2ccc(NC(=O)Cc3cccc(C(F)(F)F)c3Cl)cc2S(N)(=O)=O)c1', 98),
  ('NS(=O)(=O)c1cc(NC(=O)Cc2c(F)cccc2Cl)ccc1-c1ccc(Cl)nc1', 93),
  ('NS(=O)(=O)c1cc(NC(=O)Cc2ccc(Cl)cc2)ccc1-c1cncc(C(F)(F)F)c1', 77),
  ('NS(=O)(=O)c1cc(NC(=O)Cc2ccccc2Cl)ccc1-n1cc(C(=O)N2CC(F)(F)C2)cn1', 96),
  ('CNc1ncc(-c2ccc(NC(=O)Cc3ccccc3Cl)cc2S(N)(=O)=O)cn1', 74),
  ('NS(=O)(=O)c1cc(NC(=O)Cc2ccc(F)c(F)c2)ccc1-c1cncc(C(F)(F)F)c1', 86);

A: Cn1ccc(-c2ccc(NC(=O)Cc3ccccc3Cl)cc2S(N)(=O)=O)c1
B: NS(=O)(=O)c1cc(NC(=O)C(O)c2ccccc2Cl)ccc1-c1cnn(C(F)F)c1 (centres unmarked)
Hi! Which is lower in terms of Emax, the first one A or the second one B ? State the label of the item chosen.
B

1: NS(=O)(=O)c1cc(NC(=O)Cc2ccc(Cl)cc2)ccc1-c1ccc(Cl)nc1
2: NS(=O)(=O)c1cc(NC(=O)Cc2ccc(F)cc2)ccc1-n1cc(F)cn1
Returns the identifier with the smallest measured Emax among 1 and 2 . Respond using the label that marks the chosen record.
2

---

ASSAY_TARGET: human P2X4 (Homo sapiens, UniProt Q99571)
MEASUREMENT_PROTOCOL: Human P2X4 HEK Cell FLIPR Assay
Type: cell-based
CONDITION_SUMMARY: HEK293, HEK293 cells, agonist Bz-ATP at EC80; percentage of maximal inhibition; read-out: Human P2X4 HEK Cells (FLIPR Assay) avg Efficacy [%]
QUANTITY_NAME: Emax (%)

INSERT INTO assay_data (chemical_structure, quantity_name, meas_value) VALUES
  ('NS(=O)(=O)c1cc(NC(=O)Cc2ccccc2Cl)cnc1-n1cc(Br)cn1', 'Emax', 77),
  ('NS(=O)(=O)c1cc(NC(=O)Cc2ccc(C(F)F)cc2)ccc1-n1cc(Br)cn1', 'Emax', 52),
  ('NS(=O)(=O)c1cc(NC(=O)Cc2ccccc2Cl)ccc1-c1cnc(C2CC2)s1', 'Emax', 87),
  ('NS(=O)(=O)c1cc(NC(=O)Cc2cccc(Cl)c2)ccc1-n1cc(F)cn1', 'Emax', 63);

---

ASSAY_TARGET: UniProtKB Q99571
MEASUREMENT_PROTOCOL: Human P2X4 HEK Cell FLIPR Assay
CONDITION_SUMMARY: HEK293 cells, agonist Bz-ATP at EC80; individual values listed where some fall outside detection range
QUANTITY_NAME: IC50 (nM)

Please review the entries below; each comes with its answer.
INSERT INTO measurements (compound, meas_value) VALUES
  ('NS(=O)(=O)c1cc(NC(=O)Cc2ccccc2F)ccc1-n1cnc(C(F)F)n1', 4700),
  ('CN(C)C(=O)c1cnn(-c2ccc(NC(=O)Cc3ccccc3Cl)cc2S(N)(=O)=O)c1', 84),
  ('NS(=O)(=O)c1cc(NC(=O)Cc2ccccc2Cl)ccc1-c1cnc(NCC(F)(F)F)nc1', 34),
  ('N#Cc1cnn(-c2ccc(NC(=O)Cc3c(Cl)cccc3Cl)cc2S(N)(=O)=O)c1', 33),
  ('C[C@H]1CC[C@H](C)N1c1cnn(-c2ccc(NC(=O)Cc3ccccc3Cl)cc2S(N)(=O)=O)c1 (single isomer, unassigned) [Example 513]', 893),
  ('COc1cnc(Cl)c(-c2ccc(NC(=O)Cc3ccccc3Cl)cc2S(N)(=O)=O)c1', 36),
  ('NS(=O)(=O)c1cc(NC(=O)Cc2ccc(Cl)cc2)ccc1-c1cncc(C(F)(F)F)c1', 635),
  ('N#Cc1cnn(-c2ccc(NC(=O)Cc3c(O)cccc3Cl)cc2S(N)(=O)=O)c1', 11);

I: COc1ccccc1CC(=O)Nc1ccc(-n2cc(C#N)cn2)c(S(N)(=O)=O)c1
II: NS(=O)(=O)c1cc(NC(=O)Cc2ccc(Cl)cc2Cl)ccc1-n1cc(Cl)cn1
III: NS(=O)(=O)c1cc(NC(=O)Cc2ccccc2Cl)ccc1-n1cc(-c2ccccn2)cn1
IV: NS(=O)(=O)c1cc(NC(=O)Cc2ccc(F)cc2F)ccc1-c1ccc(Cl)nc1
Sequence the entries by IC50, beginning with the highest number. Your task in answering is to list the labels in the requested order.
II, IV, I, III
(II: 2030 nM, IV: 363 nM, I: 161 nM, III: 41 nM)

A: Cc1ccc(-c2ccc(NC(=O)Cc3ccccc3Cl)cc2S(N)(=O)=O)cn1
B: Cc1ccc(CC(=O)Nc2ccc(-c3cncc(F)c3)c(S(N)(=O)=O)c2)c(F)c1
Would you mind telling me which has the lower recorded IC50 between A and B ? Indicate your choice by writing its label.
B

P: NS(=O)(=O)c1cc(NC(=O)Cc2ccccc2Cl)ccc1-c1cnn(C2CNC2)c1
Q: NS(=O)(=O)c1cc(NC(=O)Cc2ccccc2Cl)ccc1-n1cnc2ncccc21
Would you mind telling me which has the lower recorded IC50 between P and Q ? Lab log: write the label of the selected item as the result.
Q

---

ASSAY_TARGET: human P2X4 (Homo sapiens, UniProt Q99571)
Sequence (Q99571 1-388): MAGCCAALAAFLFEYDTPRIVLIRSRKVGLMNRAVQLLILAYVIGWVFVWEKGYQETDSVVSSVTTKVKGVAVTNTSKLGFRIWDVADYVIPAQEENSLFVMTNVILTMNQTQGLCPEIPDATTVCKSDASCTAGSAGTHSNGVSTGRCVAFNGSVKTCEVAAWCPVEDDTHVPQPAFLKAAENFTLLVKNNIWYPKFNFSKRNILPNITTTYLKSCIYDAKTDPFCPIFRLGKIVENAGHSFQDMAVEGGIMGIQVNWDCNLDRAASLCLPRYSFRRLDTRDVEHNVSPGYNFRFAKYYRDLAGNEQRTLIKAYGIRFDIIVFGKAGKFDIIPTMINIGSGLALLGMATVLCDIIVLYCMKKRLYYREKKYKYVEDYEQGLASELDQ
MEASUREMENT_PROTOCOL: Human P2X4 HEK Cell FLIPR Assay
CONDITION_SUMMARY: HEK293 cells, agonist Bz-ATP at EC80; individual values listed where some fall outside detection range
pIC50: −log10 of the molar value.
QUANTITY_NAME: pIC50

Study these solved cases before continuing.
INSERT INTO measurements (chemical_structure, quantity_name, meas_value) VALUES
  ('Cc1ccccc1CC(=O)Nc1ccc(-n2cc(F)cn2)c(S(N)(=O)=O)c1', 'pIC50', 7.52),
  ('C[C@@H]1CC[C@H](C)N1c1cnn(-c2ccc(NC(=O)Cc3ccccc3Cl)cc2S(N)(=O)=O)c1', 'pIC50', 6.46),
  ('NS(=O)(=O)c1cc(NC(=O)Cc2ccccc2Cl)ccc1-c1cnn(CCOC(F)(F)F)c1', 'pIC50', 7.21);

a: NS(=O)(=O)c1cc(NC(=O)Cc2ccccc2Cl)ccc1-c1noc(C2CC2)n1
b: N#Cc1cnn(-c2ccc(NC(=O)Cc3ccc(F)c(F)c3)cc2S(N)(=O)=O)c1
# query: argmin of pIC50 over a and b Label of pick, please.
b

I: NS(=O)(=O)c1cc(NC(=O)Cc2ccc(Cl)cc2Cl)ccc1-n1cc(C(F)(F)F)nn1
II: NS(=O)(=O)c1cc(NC(=O)Cc2ccccc2Cl)ccc1-n1cccn1
III: Cc1nn(C)cc1-c1ccc(NC(=O)Cc2ccccc2F)cc1S(N)(=O)=O
Order field: pIC50 | Direction: descending (largest first) // respond by listing labels in the order requested
II, I, III
(II: 9.00, I: 7.29, III: 6.18)

a: CC(C)c1ccccc1CC(=O)Nc1ccc(-n2cc(C#N)cn2)c(S(N)(=O)=O)c1
b: CC(C)OCCn1cc(-c2ccc(NC(=O)Cc3ccccc3Cl)cc2S(N)(=O)=O)cn1
c: NS(=O)(=O)c1cc(NC(=O)Cc2cccnc2Cl)ccc1-n1cnc(C(F)(F)F)n1
d: NS(=O)(=O)c1cc(NC(=O)Cc2ccccc2OC(F)F)ccc1-n1cc(Br)cn1
Put the entries in order of pIC50, starting with the largest number. Present the labels in the sequence the task asks for.
b, a, d, c
(b: 8.22, a: 7.33, d: 6.68, c: 5.59)

a: Cc1cc(F)c(Br)cc1CC(=O)Nc1ccc(-n2cc(Cl)cn2)c(S(N)(=O)=O)c1
b: NS(=O)(=O)c1cc(NC(=O)Cc2ccccc2Cl)ccc1-n1cc(C(=O)N2CCC2)cn1
c: CC(C)(O)c1cc(F)cc(-c2ccc(NC(=O)Cc3ccccc3Cl)cc2S(N)(=O)=O)c1
d: NS(=O)(=O)c1cc(NC(=O)Cc2ccccc2Cl)ccc1-c1nccs1
e: Cc1cn(-c2ccc(NC(=O)Cc3ccccc3Cl)cc2S(N)(=O)=O)nc1C
Please list these in order of increasing pIC50. Thank you! Give the order by naming the labels one after another as requested.
a, b, d, c, e
(a: 5.65, b: 6.73, d: 7.14, c: 7.47, e: 7.70)

a: NS(=O)(=O)c1cc(NC(=O)Cc2ccc(F)cc2)ccc1-n1cc(C(F)(F)F)cn1
b: COCCn1cc(-c2ccc(NC(=O)Cc3ccccc3F)cc2S(N)(=O)=O)cn1
c: NS(=O)(=O)c1cc(NC(=O)Cc2ccccc2F)ccc1-n1ncc(C(F)(F)F)n1
d: NS(=O)(=O)c1cc(NC(=O)Cc2ccccc2Cl)ccc1-c1csc(C2CC2)n1
Give the ascending ranking of the items by reported pIC50. Provide the ranking by listing each label in its place in the requested order.
d, c, a, b
(d: 5.54, c: 5.80, a: 6.57, b: 6.85)

I: NS(=O)(=O)c1cc(NC(=O)Cc2ccccc2Cl)ccc1-c1cn[nH]c1
II: NS(=O)(=O)c1cc(NC(=O)Cc2ccccc2F)ccc1-n1ncc2ccccc21
Out of I and II , name the one with the higher pIC50. API: response body contains the label of the selected item.
I

I: COc1cccc(Cl)c1CC(=O)Nc1ccc(-n2cc(C#N)cn2)c(S(N)(=O)=O)c1
II: NS(=O)(=O)c1cc(NC(=O)Cc2ccccc2C(F)F)ccc1-n1cc(C(F)(F)F)cn1
III: NS(=O)(=O)c1cc(NC(=O)Cc2ccccc2Cl)ccc1-n1cnc(-c2cccnc2)n1
Highest pIC50 first, then in falling order down to the smallest. Give the labels in the order requested.
I, II, III
(I: 7.02, II: 6.77, III: 5.02)

P: NS(=O)(=O)c1cc(NC(=O)Cc2c(Cl)cccc2C(F)(F)F)ccc1-n1cc(Cl)cn1
Q: N#Cc1cnn(-c2ccc(NC(=O)Cc3ccncc3Cl)cc2S(N)(=O)=O)c1
R: Cc1c(-c2ccc(NC(=O)Cc3ccccc3Cl)cc2S(N)(=O)=O)cnn1-c1ccccc1
# ascending order, key=pIC50 Please respond with the labels ordered as the question requires.
Q, P, R
